Tested on: HSkMC
Procedure text: cytotoxicity call (relative viability < 0.9)
Test conditions: 10 µM
Screen size: about 39,000 compounds; about 1,500 (3.8%) were called active. Only a selection was taken, and actives are over-represented in it overall.
Choose one outcome from this list and give only that: active, inactive

Please review the entries below; each comes with its answer.
| Chem smiles | Class name |
| --- | --- |
| C[C@@H]1CCCCO[C@H](CN(C)Cc2ccc(C(F)(F)F)cc2)[C@H](C)CN([C@H](C)CO)C(=O)c2cc(NC(=O)c3ccccc3)ccc2O1 | inactive |
| C[C@@H]1CCCCO[C@H](CN(C)Cc2ccncc2)[C@H](C)CN([C@@H](C)CO)C(=O)c2cc(NC(=O)c3ccccc3)ccc2O1 | active |
| C[C@@H]1CN([C@H](C)CO)C(=O)c2cc(NS(=O)(=O)c3ccccc3)ccc2O[C@@H](C)CCCCO[C@@H]1CN(C)Cc1ccccc1 | inactive |
| CN1CCN(C(=O)[C@H]2[C@H](CO)[C@H]3Cn4c(ccc(C5=CCCC5)c4=O)[C@@H]2N3S(C)(=O)=O)CC1 | inactive |
| C[C@H]1CCCCO[C@H](CN(C)Cc2ccc(C(F)(F)F)cc2)[C@@H](C)CN([C@@H](C)CO)C(=O)c2cc(NC(=O)Nc3ccccc3)ccc2O1 | active |

Q) Recorded call for C[C@@H]1CCCCO[C@@H](CN(C)Cc2ccc(C(F)(F)F)cc2)[C@@H](C)CN([C@@H](C)CO)C(=O)c2cc(NC(=O)Nc3ccccc3)ccc2O1 ?
A) inactive

----------
System: HSkMC
Procedure text: cytotoxicity call (relative viability < 0.9)
Test conditions: 10 µM
Screen size: about 39,000 compounds; about 1,500 (3.8%) were called active. This excerpt belongs to a sample that is enriched for actives.
Outcomes you can answer with include only these: Y for active, N for inactive

| Chem smiles | Class name |
| --- | --- |
| C[C@@H]1CN([C@H](C)CO)C(=O)CCCn2cc(nn2)CO[C@H]1CN(C)C(=O)Nc1ccccc1C(F)(F)F | N |
| Cc1cc(C(=O)Nc2cccc3c2O[C@H](CN(C)C(=O)Nc2c(C)noc2C)[C@H](C)CN([C@@H](C)CO)C3=O)n(C)n1 | N |
| C[C@@H]1CN([C@@H](C)CO)C(=O)c2cc(NC(=O)Cn3cnnn3)ccc2O[C@@H]1CN(C)Cc1ccc(Cl)c(Cl)c1 | N |
| FC(F)(F)c1ccccc1/N=C1\CCCc2ccccc21 | N |
| C=c1[nH]/c(=C\c2ccc(F)cc2)c(=O)o1 | N |

Q) Hey, what did the test say about Cc1ccc(S(=O)(=O)Nc2ccc3c(c2)C(=O)N([C@H](C)CO)C[C@H](C)[C@@H](CN(C)C(=O)Nc2c(C)noc2C)OCCCC[C@H](C)O3)cc1 ?
A) N

Q) Next compound: CC1(C)C(=O)NCCN1C(=O)c1ccco1
A) N

Q) And then COc1ccc2c3c([nH]c2c1)[C@H](CO)N(C[C@]13CN(C1)S(=O)(=O)C)C(=O)C1CCOCC1 , what is it?
A) N

----------
Tested on: HSkMC
Procedure text: cytotoxicity call (relative viability < 0.9)
Test conditions: 10 µM
Out of some 39,000 compounds screened, about 1,500 (3.8%) were called active. For the sample, actives were picked, then their nearest neighbours and some compounds at random.
Test readout: cytotoxicity call

| Chem smiles | Test readout | Result |
| --- | --- | --- |
| Cc1cc(C(=O)Nc2cccc3c2O[C@@H](CN(C)S(=O)(=O)c2cccs2)[C@H](C)CN([C@H](C)CO)C3=O)n(C)n1 | cytotoxicity call | inactive |
| Cc1cc(C)c(/N=c2\scc(C)n2Cc2ccccc2)c(C)c1 | cytotoxicity call | inactive |
| COCC(=O)N1C[C@H](C)[C@H](OC)CN(C)C(=O)c2cc(NC(=O)c3cc(C)on3)ccc2OC[C@@H]1C | cytotoxicity call | inactive |

----------
Test system: HSkMC
Procedure text: cytotoxicity call (relative viability < 0.9)
Test conditions: 10 µM
The campaign covered roughly 39,000 compounds. About 1,500 (3.8%) were called active. The entries come from a sample that favours actives as a whole.

| Chem smiles | cytotoxicity call |
| --- | --- |
| Cc1noc(C)c1NC(=O)Nc1ccc2c(c1)C(=O)N([C@@H](C)CO)C[C@@H](C)[C@H](CN(C)Cc1ccc(Cl)c(Cl)c1)OCCCC[C@H](C)O2 | inactive |
| COc1ccc(NC(=O)Nc2ccc3c(c2)C(=O)N([C@@H](C)CO)C[C@H](C)[C@@H](CN(C)C(=O)Cc2ccccc2)OCCCC[C@@H](C)O3)cc1 | inactive |
| Cc1c(C)c2ccc(O[C@@H]3O[C@H](CO)[C@H](O)[C@H](O)[C@H]3O)cc2oc1=O | inactive |

----------
Test system: HSkMC
Procedure text: cytotoxicity call (relative viability < 0.9)
Test conditions: 10 µM
The campaign covered roughly 39,000 compounds. About 1,500 (3.8%) were called active. Many of the other results were omitted from the sample, so actives are more common in it than they were.
Please state which outcome applies, choosing from active, inactive

The following compounds have reported results that may help.
| Chem smiles | Target of assay | Class name |
| --- | --- | --- |
| C[C@@H]1CCCCO[C@@H](CN(C)CC2CC2)[C@H](C)CN([C@@H](C)CO)C(=O)c2cc(NC(=O)Nc3ccc(C(F)(F)F)cc3)ccc2O1 | HSkMC | inactive |
| C[C@@H]1CN([C@@H](C)CO)C(=O)c2cc(NS(=O)(=O)c3cn(C)cn3)ccc2O[C@@H](C)CCCCO[C@H]1CN(C)C(=O)Nc1cccc2ccccc12 | HSkMC | active |

Q) Hello, I am checking results. What call was entered for C[C@@H]1CCCCO[C@H](CN(C)C(=O)Nc2ccc(F)cc2)[C@H](C)CN([C@@H](C)CO)C(=O)c2cc(NC(=O)NC3CCCCC3)ccc2O1 ?
A) inactive

Q) Record: C[C@@H]1CCCCO[C@H](CN(C)C(=O)Nc2cccc3ccccc23)[C@H](C)CN([C@H](C)CO)C(=O)c2cc(NS(=O)(=O)c3ccc(Cl)cc3)ccc2O1
A) inactive

Q) And the next one, C[C@H]1CCCCO[C@H](CN(C)C(=O)Nc2cccc3ccccc23)[C@@H](C)CN([C@@H](C)CO)C(=O)c2cc(NS(=O)(=O)c3cn(C)cn3)ccc2O1 ?
A) inactive

Q) Also CCOC(=O)N1CCN(C(=O)C2CCN(S(=O)(=O)N(CC)CC)CC2)CC1 , if possible.
A) inactive

Q) Can you check CCCN(C)C[C@@H]1OCCCC[C@H](C)Oc2ccc(NC(=O)Nc3ccc(C(F)(F)F)cc3)cc2C(=O)N([C@@H](C)CO)C[C@@H]1C next?
A) active

Q) Another compound to look at: C[C@@H]1CCCCO[C@H](CN(C)C(=O)Nc2cccc3ccccc23)[C@H](C)CN([C@@H](C)CO)C(=O)c2cc(NS(=O)(=O)c3cn(C)cn3)ccc2O1
A) inactive

Q) Then what about the compound C[C@@H]1CCCCO[C@H](CN(C)C(=O)Nc2cccc3ccccc23)[C@H](C)CN([C@H](C)CO)C(=O)c2cc(NS(=O)(=O)c3cn(C)cn3)ccc2O1 ?
A) active

Q) Check C[C@H](CO)N1C[C@H](C)[C@@H](CN(C)C(=O)Nc2cccc3ccccc23)OCCCC[C@H](C)Oc2ccc(NS(=O)(=O)c3cn(C)cn3)cc2C1=O too.
A) inactive

Q) Would you mind doing Cc1ccc(S(=O)(=O)N(C)C[C@H]2OCCCC[C@H](C)Oc3ccc(NC(=O)Nc4ccc(C(F)(F)F)cc4)cc3C(=O)N([C@H](C)CO)C[C@H]2C)cc1 as well?
A) inactive

Q) And for C[C@@H]1CCCCO[C@@H](CN(C)C(=O)Nc2cccc3ccccc23)[C@H](C)CN([C@@H](C)CO)C(=O)c2cc(NS(=O)(=O)c3cn(C)cn3)ccc2O1 ?
A) inactive

Q) Quick one: C[C@H]1CCCCO[C@H](CN(C)CC2CC2)[C@@H](C)CN([C@@H](C)CO)C(=O)c2cc(NC(=O)Nc3ccc(C(F)(F)F)cc3)ccc2O1
A) inactive

Q) And then CCCN(C)C[C@H]1OCCCC[C@H](C)Oc2ccc(NC(=O)Nc3ccc(C(F)(F)F)cc3)cc2C(=O)N([C@@H](C)CO)C[C@H]1C , what is it?
A) inactive

----------
Tested on: HSkMC (human skeletal muscle cells)
Procedure text: cytotoxicity call (relative viability < 0.9)
Test conditions: 10 µM
Out of some 39,000 compounds screened, about 1,500 (3.8%) were called active. What follows is part of a selection rich in actives, with near analogues and random picks from the rest.

| Chem smiles | Target of assay | cytotoxicity call |
| --- | --- | --- |
| C[C@H](CO)N1C[C@H](C)[C@H](CN(C)C(=O)Cc2ccccc2)OCCCC[C@H](C)Oc2ccc(NC(=O)Nc3ccc(C(F)(F)F)cc3)cc2C1=O | HSkMC | inactive |
| C[C@@H]1CN([C@H](C)CO)C(=O)Cc2cc(NC(=O)CCCCCC(=O)Nc3ccccc3N)ccc2O[C@@H]1CN(C)Cc1ccc(Cl)c(Cl)c1 | HSkMC | inactive |
| Cc1noc(C)c1NC(=O)N(C)C[C@H]1Oc2c(NC(=O)C3CCOCC3)cccc2C(=O)N([C@H](C)CO)C[C@H]1C | HSkMC | inactive |
| Cc1noc(C)c1NC(=O)N(C)C[C@@H]1Oc2ccc(NC(=O)Nc3cccc4ccccc34)cc2C(=O)N([C@@H](C)CO)C[C@@H]1C | HSkMC | inactive |
